Listed next: entries and their corresponding viability.
tested on: SB.msgc-1; assay: viability at highest tested concentration (MAXR) relative to DMSO; higher = less cytotoxic; settings: SB.msgc-1 (sporadic gastric cancer)
Readout Type: viability (%)

CCCCCCCCCCCC(CC1OC(=O)C1CCCCCC)OC(=O)C(CC(C)C)NC=O (stereo not drawn) [Orlistat] (top concentration 46.0829 µM) ... 81
C=CC1=C(C(=O)O)N2C(=O)[C@@H](NC(=O)/C(=N\O)c3csc(N)n3)[C@H]2SC1 [Cefdinir] (top concentration 46.0829 µM) ... 124
C[C@@]12OC(=O)[C@@]1(NC(=O)[C@@H]2CCCl)[C@@H](O)[C@H]\3CCC\C=C3 [Marizomib] (top concentration 46.0829 µM) ... 3.33
Cc1cc(Nc2nc(N[C@@H](C)c3ccc(F)cc3)c(C#N)cc2F)n[nH]1 [AZ-960] (top concentration 46.0829 µM) ... 2.72
CCOC\1=C(/C(=O)NC2=CC=C(OC3=C(Cl)C(=NC=C3)N)C(=C2)F)C(=O)N(\C=C1)C4=CC=C(F)C=C4 (top concentration 46.0829 µM) ... 59.8
Cc1cc(NC(=O)Nc2ccc(N(C)C)cc2)c2cc(F)cc(F)c2n1 (top concentration 46.0829 µM) ... 74.6
COC1=CC=C(C=C1)C/2=C/OC3=C(C(=CC(=C3)O)O)C2=O [Biochanin A] (top concentration 46.0829 µM) ... 119
C=C(c1ccc(C(=O)O)cc1)c1cc2c(cc1C)C(C)(C)CCC2(C)C [Bexarotene] (top concentration 46.0829 µM) ... 68.6
COc1ncc(-c2ccc3nccc(-c4ccnnc4)c3c2)cc1N[S+](=O)([O-])c1ccc(F)cc1F (top concentration 46.0829 µM) ... 26.7
CC(C)c1ccc2oc3nc(N)c(C(=O)O)cc3c(=O)c2c1 [Amlexanox] (top concentration 46.0829 µM) ... 74.9
CN(C)NC(=O)CCC(=O)O [Daminozide] (top concentration 46.0829 µM) ... 88
CCOC(=O)N1CCN(/[N+]([O-])=N/Oc2ccc([N+](=O)[O-])cc2[N+](=O)[O-])CC1 (top concentration 46.0829 µM) ... 2.03
N[C@@H](CC(=O)N1CCn2c(nnc2C(F)(F)F)C1)Cc1cc(F)c(F)cc1F [Sitagliptin] (top concentration 46.0829 µM) ... 99.3

###

system: SB.msgc-1; assay: viability at highest tested concentration (MAXR) relative to DMSO; higher = less cytotoxic; conditions: SB.msgc-1 (sporadic gastric cancer)
Structures can show the parent of a compound that is named as a salt.
Strictly below 40% in viability: TRUE. Otherwise: FALSE.

CN[C@@H]1Cc2cccc3[nH]c(=O)n(c23)C1 [Sumanirole maleate] (top concentration 46.0829 µM) ... FALSE
CN(C)c1ccc(O)c2c1C[C@H]1C[C@H]3[C@H](N(C)C)C(O)=C(C(N)=O)C(=O)[C@@]3(O)C(O)=C1C2=O [Minocycline] (top concentration 46.0829 µM) ... TRUE
CC(C)C1NC(=O)C(NC(=O)C2=C3\N=C\4/C(=C(C)\C(=O)\C(=C4C(=O)NC5C(C)OC(=O)C(C(C)C)N(C)C(=O)CN(C)C(=O)C6CCCN6C(=O)C(NC5=O)C(C)C)N)OC3=C(C)C=C2)C(C)OC(=O)C(C(C)C)N(C)C(=O)CN(C)C(=O)C7CCCN7C1=O (stereo not drawn) [Actinomycin D] (top concentration 46.0829 µM) ... FALSE
O=C(O)CCNC(=O)c1ccc(/N=N/c2ccc(O)c(C(=O)O)c2)cc1 [Balsalazide disodium] (top concentration 46.0829 µM) ... TRUE
C[C@H]1CC2C3CCC/4=C/C(=O)/C=C\[C@]4(C)[C@@]3(F)[C@@H](O)C[C@]2(C)[C@@]1(O)C(=O)CO (stereo partly drawn) [Betamethasone] (top concentration 46.0829 µM) ... FALSE
COc1cc2c(cc1OC)C1CC(=O)C(CC(C)C)CN1CC2 (stereo not drawn) [Tetrabenazine] (top concentration 46.0829 µM) ... FALSE
C[S+](=O)([O-])Oc1ccc2c(NC(N)=O)c(C(=O)c3ccc(Cl)cc3Cl)oc2c1 [Lirimilast] (top concentration 46.0829 µM) ... TRUE
O=C(O)c1nn(Cc2ccc(Cl)cc2Cl)c2ccccc12 [Lonidamine] (top concentration 46.0829 µM) ... FALSE
CCC(C)N(C)C(=O)c1cc2ccccc2c(-c2ccccc2Cl)n1 (stereo not drawn) (top concentration 46.0829 µM) ... FALSE
CCNC(=O)Nc1ccc2ncc(Nc3ccc(C)cc3)nc2n1 (top concentration 46.0829 µM) ... TRUE
CC(c1cc2ccccc2s1)N(O)C(N)=O (stereo not drawn) [Zileuton] (top concentration 46.0829 µM) ... FALSE
CN(C)C(=O)c1ccc([S+](=O)([O-])c2ccc(NC(=O)[C@@](C)(O)C(F)(F)F)c(Cl)c2)cc1 [AZD-7545] (top concentration 46.0829 µM) ... FALSE
c1cncc(CN2CCC(n3ncc4c(N5CCOCC5)nc(-c5ccc6[nH]ccc6c5)nc43)CC2)c1 [WAY-600] (top concentration 46.0829 µM) ... TRUE
C/C=C(/C)C(=O)O[C@H]1C(C)=C[C@]23C(=O)[C@@H](C=C(CO)[C@@H](O)[C@]12O)[C@H]1[C@@H](C[C@H]3C)C1(C)C [Ingenol mebutate] (top concentration 46.0829 µM) ... FALSE
CC1=CC2=C(O1)C(=C3OC(=O)\C=C(C)/C3=C2)C [Trioxsalen] (top concentration 46.0829 µM) ... FALSE
O=C1NC(O)CCN1[C@@H]1O[C@H](CO)[C@@H](O)[C@H]1O (stereo partly drawn) [Tetrahydrouridine] (top concentration 46.0829 µM) ... FALSE
Nc1nc(N)c2nc(-c3cccc(O)c3)c(-c3cccc(O)c3)nc2n1 (top concentration 46.0829 µM) ... TRUE
O=C(CCCCCCC(=O)Nc1ccc([C@H]2O[C@@H](CSc3nc(-c4ccccc4)c(-c4ccccc4)o3)C[C@@H](c3ccc(CO)cc3)O2)cc1)NO [Tubacin] (top concentration 46.0829 µM) ... TRUE
c1ccc(CCCN2CCN(CCOC(c3ccccc3)c3ccccc3)CC2)cc1 (top concentration 46.0829 µM) ... TRUE
ClC1=CC(=CC=C1)N2CCN(CCCN3\N=C4\C=C/C=C\N4C3=O)CC2 [Trazodone hydrochloride] (top concentration 46.0829 µM) ... FALSE
Cc1csc(-c2nnc(Nc3ccc(Oc4ncccc4-c4ccnc(N)n4)cc3)c3ccccc23)c1 [AMG-900] (top concentration 46.0829 µM) ... FALSE

###

test system: SB.msgc-1; test: viability at highest tested concentration (MAXR) relative to DMSO; higher = less cytotoxic; conditions: SB.msgc-1 (sporadic gastric cancer)
Where a name gives a salt, the structure may show the parent alone.
Readout Type: viability (%)

COc1cc2c(cc1OC)[C@@H]1Cc3ccc(OC)c(OC)c3CN1CC2 [Rotundine] (top concentration 46.0829 µM) ... 72.6
N=C(N)NC(=O)c1nc(Cl)c(N)nc1N [Amiloride hydrochloride] (top concentration 46.0829 µM) ... 111
Nc1ncnc2c1ncn2[C@@H]1O[C@H](CO)C[C@H]1O [Cordycepin] (top concentration 46.0829 µM) ... 55.5
Nc1cccc(-c2cc3c(Oc4cccc(O)c4)ncnc3[nH]2)c1 [TWS-119] (top concentration 46.0829 µM) ... 32.8
COc1ccc(CC2SC(=O)NC2=O)cc1C(=O)NCc1ccc(C(F)(F)F)cc1 (stereo not given) [MK-767] (top concentration 46.0829 µM) ... 19.6
O=C1c2ccccc2-[n+]2ccc3c([nH]c4ccccc43)c21 [Fascaplysin] (top concentration 46.0829 µM) ... 0.154
OC[C@H]1OC(OC2=CC3=C(C(=C2)O)C(=O)\C(=C/O3)C4=CC=C(O)C=C4)[C@H](O)[C@@H](O)[C@@H]1O (stereo not given in full) [Genistin] (top concentration 46.0829 µM) ... 16.4
CC(C)(C)NC(=O)[C@H]1CC[C@H]2[C@@H]3CC[C@H]4NC(=O)\C=C/[C@]4(C)[C@H]3CC[C@]12C [Finasteride] (top concentration 46.0829 µM) ... 2.98
CC(C)[C@@H](N(CCCN)C(=O)C1=CC=C(C)C=C1)C/2=N/C3=CC(=CC=C3C(=O)N2CC4=CC=CC=C4)Cl [Ispinesib] (top concentration 46.0829 µM) ... 14.9
CNC[C@H](O)[C@@H](O)[C@H](O)[C@H](O)CO [Meglumine] (top concentration 46.0829 µM) ... 118
COC(=O)[C@H](Cc1ccccc1)NC(=O)[C@@H](N)CC(=O)O [Aspartame] (top concentration 46.0829 µM) ... 98.2
CCNC(=O)Nc1ccc(Oc2ncnc(N)c2/C=N/OC)cc1Cl (top concentration 46.0829 µM) ... 53.8
N#Cc1ccc(NC(=O)Nc2ccccc2Br)c2nn[nH]c12 (top concentration 46.0829 µM) ... 78.6
Cn1cc(/C=C/C(=O)c2cccc(F)c2)cc1/C=C/C(=O)NO [MC-1568] (top concentration 46.0829 µM) ... 46.7
CC(S)C(=O)NCC(=O)O (stereo not given) [Tiopronin] (top concentration 46.0829 µM) ... 110
COc1nc(-c2ccc3c(c2)OCO3)n(-c2ccc(NC(=O)CSc3ccccc3)cc2)n1 [Secin H3] (top concentration 46.0829 µM) ... 109
CCOC(=O)[C@H](CCc1ccccc1)N[C@H]1CCc2ccccc2N(CC(=O)O)C1=O [Benzapril] (top concentration 46.0829 µM) ... 2.71
COc1ccc(-c2cc3nccn3c(Nc3ncccc3C(N)=O)n2)cc1OC [BAY61-3606] (top concentration 46.0829 µM) ... 25.8
C=CC(=O)Nc1cccc(Oc2nc(Nc3ccc(N4CCN(C)CC4)cc3OC)ncc2Cl)c1 [WZ-4002] (top concentration 46.0829 µM) ... 9.94
Cc1cnc(NC(=O)Nc2cc(Br)c(C)cc2OC[C@@H]2CNCCO2)cn1 [Rabusertib] (top concentration 46.0829 µM) ... 35.8
C[C@@H]1C[C@H]2[C@@H]3\C=C(C)/C4=C/C5=C(C[C@]4(C)[C@H]3[C@@H](O)C[C@]2(C)[C@@]1(O)C(=O)COC(C)=O)C=N[N]5C6=CC=CC=C6 [Cortivazol] (top concentration 46.0829 µM) ... 8.26
c1coc(CNc2ncnc3nc[nH]c23)c1 [Kinetin] (top concentration 46.0829 µM) ... 91.3
CC1CCN(c2cc(N3CCN(C)CC3)ccc2NC(=O)c2cc(C#N)c[nH]2)CC1 [c-FMS inhibitor] (top concentration 46.0829 µM) ... 40.2
CC(C)C[C@H](CN)CC(=O)O [Pregabalin] (top concentration 46.0829 µM) ... 76.5
CCOC(=O)N[C@@H]1CC[C@@H]2[C@@H](C1)C[C@H]1C(=O)O[C@H](C)[C@H]1[C@H]2/C=C/c1ccc(-c2cccc(F)c2)cn1 [Vorapaxar] (top concentration 46.0829 µM) ... 73.5

Hello, the source for this data is the supplement of paper PMC5412046, in case you need it.
